- measured.on: T1, ZFP SBS#1252 (synthetic)
- T1 chain: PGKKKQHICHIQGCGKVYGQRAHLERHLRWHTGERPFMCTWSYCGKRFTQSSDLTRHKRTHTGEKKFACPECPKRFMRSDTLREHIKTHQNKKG
- assay.overview: EMSA
- experimental.setup: tags: MBP fusion
attribute.measured: Kd (nM)
Supply the numeric figure in nM, leaving out any unit text.

Ask | Look at this binder and give its reported Kd. CCGGCTGGA (dsDNA) DNA 1: CCGGCTGGA DNA 2: TCCAGCCGG
Reply | 0.153

Recorded values, source patent US20030068675.
